- EXPERIMENTAL_TARGET: PI3K-α (Homo sapiens, UniProt P42336)
- Sequence (P42336 whole entry, species assumed): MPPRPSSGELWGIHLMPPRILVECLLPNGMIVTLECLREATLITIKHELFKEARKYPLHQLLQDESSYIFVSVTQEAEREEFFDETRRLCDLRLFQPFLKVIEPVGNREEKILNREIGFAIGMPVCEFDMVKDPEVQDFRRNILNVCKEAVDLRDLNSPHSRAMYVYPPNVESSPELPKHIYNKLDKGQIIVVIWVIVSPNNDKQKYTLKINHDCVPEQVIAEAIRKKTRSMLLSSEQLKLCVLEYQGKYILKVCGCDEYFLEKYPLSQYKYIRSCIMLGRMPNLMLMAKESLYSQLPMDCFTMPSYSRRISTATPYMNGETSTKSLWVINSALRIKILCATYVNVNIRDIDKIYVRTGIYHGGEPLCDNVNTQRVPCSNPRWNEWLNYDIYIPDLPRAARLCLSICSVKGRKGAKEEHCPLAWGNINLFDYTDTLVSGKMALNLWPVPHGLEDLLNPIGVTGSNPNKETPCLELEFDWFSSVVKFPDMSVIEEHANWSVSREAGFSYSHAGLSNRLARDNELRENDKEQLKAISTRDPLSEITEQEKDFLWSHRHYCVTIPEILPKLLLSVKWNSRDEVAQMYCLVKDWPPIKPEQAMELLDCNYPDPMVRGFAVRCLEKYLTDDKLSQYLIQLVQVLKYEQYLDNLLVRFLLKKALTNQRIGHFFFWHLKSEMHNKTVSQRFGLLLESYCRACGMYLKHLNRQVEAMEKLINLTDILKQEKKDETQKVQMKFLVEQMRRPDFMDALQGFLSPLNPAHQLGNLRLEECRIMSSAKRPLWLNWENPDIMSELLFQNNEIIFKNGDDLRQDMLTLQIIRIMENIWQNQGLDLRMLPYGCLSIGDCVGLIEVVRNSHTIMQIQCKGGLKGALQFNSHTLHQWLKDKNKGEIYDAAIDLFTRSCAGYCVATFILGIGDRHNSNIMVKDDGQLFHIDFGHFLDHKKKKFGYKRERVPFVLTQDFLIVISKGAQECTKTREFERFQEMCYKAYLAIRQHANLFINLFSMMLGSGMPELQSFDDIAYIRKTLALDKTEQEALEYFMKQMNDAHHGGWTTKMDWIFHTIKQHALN
- Sequence (P27986 whole entry partner, species assumed): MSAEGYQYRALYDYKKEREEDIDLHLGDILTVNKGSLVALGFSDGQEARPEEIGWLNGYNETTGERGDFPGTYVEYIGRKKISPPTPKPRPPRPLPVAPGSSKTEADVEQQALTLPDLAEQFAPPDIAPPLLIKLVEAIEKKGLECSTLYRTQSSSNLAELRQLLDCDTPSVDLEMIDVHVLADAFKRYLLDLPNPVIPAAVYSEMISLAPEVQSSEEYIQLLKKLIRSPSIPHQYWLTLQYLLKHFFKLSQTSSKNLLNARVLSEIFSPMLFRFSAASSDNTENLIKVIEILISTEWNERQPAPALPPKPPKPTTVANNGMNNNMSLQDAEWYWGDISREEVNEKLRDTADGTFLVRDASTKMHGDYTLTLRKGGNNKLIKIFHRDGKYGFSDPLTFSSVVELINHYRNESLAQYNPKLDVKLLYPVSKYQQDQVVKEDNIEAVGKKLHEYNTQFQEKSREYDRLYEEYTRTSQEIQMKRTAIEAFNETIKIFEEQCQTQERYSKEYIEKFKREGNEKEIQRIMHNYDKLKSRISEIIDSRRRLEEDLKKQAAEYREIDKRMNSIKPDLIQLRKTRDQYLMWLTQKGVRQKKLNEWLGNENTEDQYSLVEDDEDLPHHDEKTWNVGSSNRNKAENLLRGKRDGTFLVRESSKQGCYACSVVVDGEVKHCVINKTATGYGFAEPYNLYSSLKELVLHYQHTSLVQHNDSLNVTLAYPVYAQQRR
- PROTOCOL_TEXT: PI3K-alpha fluorescence polarization assay
- MEASUREMENT_PARAMETERS: read-out: IC50 PI3Kα
Items are presented alongside their recorded pIC50.
# pIC50 is unitless: minus log10 of the molar concentration; print number only

Examples from the recorded data:
C[C@@H]1COCCN1c1nc(-c2ccc(NC(=O)Nc3ccc(N4CCNCC4)cc3)cc2)nc(C2CCOCC2)n1 [Example 422]: 6.57
CCN1CCN(C(=O)c2ccc(NC(=O)Nc3ccc(-c4nc(N5CCOC[C@H]5C)nc(N5CCOC[C@@H]5C)n4)cc3)cc2)CC1 [Example 625]: 7.78
O=C(Nc1ccc(C(=O)N2CCNCC2)cc1)Nc1ccc(-c2nc(N3CCOCC3)nc(N3C4CCC3COC4)n2)cc1 [Example 756]: 9.30

Consider now this further compound.
Suppose we examine the compound CC(C)Nc1nc(-c2ccc(NC(=O)Nc3ccncc3)cc2)nc(N2CC3CCC(C2)O3)n1 [Example 215] ; what pIC50 value has been reported? 6.73

----------
- EXPERIMENTAL_TARGET: UniProt:P42345
- PROTOCOL_TEXT: mTOR kinase assay (DELFIA format, purified enzyme)
- Format: biochemical
- MEASUREMENT_PARAMETERS: read-out: IC50 mTOR
Items are presented alongside their recorded pIC50.
# pIC50 is unitless: minus log10 of the molar concentration; print number only

CCCCc1nc(-c2ccc(NC(=O)Nc3ccc(C(=O)NCCN(C)C)cc3)cc2)nc(N2CCOCC2)n1 [Example 231]: 8.60
c1cc(-c2nc(N3CCOCC3)nc(N3CCOCC3)n2)ccc1-c1nn[nH]n1 [Example 475]: 4.73
CC(C)N1CCN(C(=O)c2ccc(NC(=O)Nc3ccc(-c4nc(C5CCOCC5)nc(N5CCOC[C@H]5C)n4)cc3)cc2)CC1 [Example 432]: 9.16

Consider now this further compound.
Missing value: pIC50, UniProt:P42345, entry CC(C)Cc1nc(-c2ccc(NC(=O)Nc3ccc(C(=O)N4CCN(C)CC4)cc3)cc2)nc(N2CCOCC2)n1 [Example 322] . Fill in? 8.22

----------
- EXPERIMENTAL_TARGET: PI3K-γ (Homo sapiens)
- PROTOCOL_TEXT: PI3K-gamma fluorescence polarization assay
- MEASUREMENT_PARAMETERS: read-out: IC50 PI3Kγ; listed as 673
REPORTED_ENDPOINT: pIC50
# pIC50 is unitless: minus log10 of the molar concentration; print number only

Suppose we examine the compound O=C(Nc1ccc(CO)cc1)Nc1ccc(-c2nc(N3CCOCC3)nc(N3C4CCC3COC4)n2)cc1 ; what pIC50 value has been reported? 7.01

----------
Items are presented alongside their recorded pIC50.
- EXPERIMENTAL_TARGET: UniProt P42336
- PROTOCOL_TEXT: PI3K-alpha fluorescence polarization assay
- MEASUREMENT_PARAMETERS: read-out: IC50 PI3Kα
# pIC50 is unitless: minus log10 of the molar concentration; print number only

Examples from the recorded data:
O=C(Nc1ccc(C(=O)N2CCOCC2)cc1)Nc1ccc(-c2nc(C3CCOCC3)nc(N3C4CCC3COC4)n2)cc1 [Example 460]: 6.84
CN(C)CC(=O)Nc1ccc(NC(=O)Nc2ccc(-c3nc(N4C5CCC4COC5)nc(N4C5CCC4COC5)n3)cc2)cc1 [Example 373]: 7.15
CN1CCN(C(=O)c2ccc(NC(=O)Nc3ccc(-c4nc(N5CCC5)nc(N5CCOCC5)n4)cc3)cc2)CC1 [Example 196]: 8.22

Consider now this further molecule.
Missing value: pIC50, UniProt P42336, entry CN1CCN(c2ccc(NC(=O)Nc3ccc(-c4nc(N5C6COCC5COC6)nc(N5C6COCC5COC6)n4)cc3)cc2)CC1 [Example 823] . Fill in? 6.18

----------
- EXPERIMENTAL_TARGET: Human mTOR (FLAG-TOR) (Homo sapiens, UniProt P42345)
- Sequence (P42345 1360-2549 limits assumed): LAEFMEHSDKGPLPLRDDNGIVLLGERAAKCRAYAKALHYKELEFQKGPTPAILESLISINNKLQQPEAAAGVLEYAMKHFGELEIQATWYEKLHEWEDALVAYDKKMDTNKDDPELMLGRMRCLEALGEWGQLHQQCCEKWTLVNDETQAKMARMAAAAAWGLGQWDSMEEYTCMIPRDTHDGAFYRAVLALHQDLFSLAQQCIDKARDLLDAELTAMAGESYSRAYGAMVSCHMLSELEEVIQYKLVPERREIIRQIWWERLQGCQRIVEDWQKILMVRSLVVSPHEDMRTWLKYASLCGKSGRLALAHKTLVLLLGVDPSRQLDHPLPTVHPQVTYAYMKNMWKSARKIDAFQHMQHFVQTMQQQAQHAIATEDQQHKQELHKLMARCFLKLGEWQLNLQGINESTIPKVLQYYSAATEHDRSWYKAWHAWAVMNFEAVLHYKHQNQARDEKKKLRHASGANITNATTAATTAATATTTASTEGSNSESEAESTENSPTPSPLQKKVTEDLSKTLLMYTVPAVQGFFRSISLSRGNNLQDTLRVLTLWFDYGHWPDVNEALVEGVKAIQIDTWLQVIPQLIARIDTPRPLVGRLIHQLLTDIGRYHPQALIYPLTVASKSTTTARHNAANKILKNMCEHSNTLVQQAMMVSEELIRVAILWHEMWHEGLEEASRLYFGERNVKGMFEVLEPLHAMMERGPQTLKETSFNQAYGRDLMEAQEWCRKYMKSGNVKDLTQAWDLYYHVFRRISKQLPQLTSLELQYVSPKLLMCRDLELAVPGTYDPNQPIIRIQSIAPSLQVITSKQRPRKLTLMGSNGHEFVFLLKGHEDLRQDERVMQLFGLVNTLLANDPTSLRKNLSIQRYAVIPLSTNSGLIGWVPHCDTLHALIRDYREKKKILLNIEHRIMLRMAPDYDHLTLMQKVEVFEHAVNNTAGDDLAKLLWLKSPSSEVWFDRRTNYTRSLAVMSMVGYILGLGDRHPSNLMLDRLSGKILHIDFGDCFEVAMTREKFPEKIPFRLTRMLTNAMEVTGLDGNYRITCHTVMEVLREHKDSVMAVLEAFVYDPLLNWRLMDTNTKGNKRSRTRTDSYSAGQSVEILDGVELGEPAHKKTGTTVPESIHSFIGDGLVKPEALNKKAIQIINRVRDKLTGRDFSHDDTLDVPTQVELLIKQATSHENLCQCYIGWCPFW
- PROTOCOL_TEXT: mTOR kinase assay (DELFIA format, purified enzyme)
- Type: biochemical
- MEASUREMENT_PARAMETERS: read-out: IC50 mTOR
Items are presented alongside their recorded IC50.
Supply the numeric figure in nM, leaving out any unit text.

CCN1CCN(C(=O)c2ccc(NC(=O)Nc3ccc(-c4nc(N5CCOCC5)nc(N5CCCN(C(C)C)CC5)n4)cc3)cc2)CC1: 770

Suppose we examine the molecule CNC(=O)Nc1ccc(-c2nc(N3CC4CCC(C3)O4)nc(N3CC4CCC(C3)O4)n2)cc1 ; what IC50 value has been reported? 2.5

Suppose we examine the molecule CC(C)Nc1nc(-c2ccc(NC(=O)Nc3ccc(CN)cc3)cc2)nc(N2C3CCC2COC3)n1 ; what IC50 value has been reported? 4.5

Suppose we examine the molecule Nc1nc2cc(-c3nc(N4CCOCC4)nc(N4C5CCC4COC5)n3)ccc2[nH]1 ; what IC50 value has been reported? 23.5

Suppose we examine the molecule CN(C)Cc1ccc(NC(=O)Nc2ccc(-c3nc(C4CCOCC4)nc(N4C5CCC4COC5)n3)cc2)cc1 ; what IC50 value has been reported? 1.5

Suppose we examine the molecule O=C(Nc1ccc(C(=O)N2CCOCC2)cc1)Nc1ccc(-c2nc(N3CCOCC3)nc(N3C4CCC3COC4)n2)cc1 ; what IC50 value has been reported? 0.445

Suppose we examine the molecule O=C(Nc1ccncc1)Nc1ccc(-c2nc(N3CCCCC3)nc(N3CC4CCC(C3)O4)n2)cc1 ; what IC50 value has been reported? 5.1

----------
Items are presented alongside their recorded IC50.
- System: human breast MDA-MB-361 tumor cell line
- PROTOCOL_TEXT: In vitro cell culture growth assay (MTS), MDA-MB-361
- Assay type: cell-based
- MEASUREMENT_PARAMETERS: Homo sapiens, MDA-MB-361, 72 h, MTS cell growth assay, three days after drug treatment, MDA-MB-361 cells; read-out: IC50 MDA-MB-361
Supply the numeric figure in nM, leaving out any unit text.

CN1CCN(C(=O)Nc2ccc(NC(=O)Nc3ccc(-c4nc(N5CCOCC5)nc(N5CCOCC5)n4)cc3)cc2)CC1: 4

Suppose we examine the molecule Cc1ccc(NC(=O)Nc2ccc(-c3nc(N4CCOCC4)nc(N4C5CCC4COC5)n3)cc2)cc1 ; what IC50 value has been reported? 167

Suppose we examine the molecule CN(C)C1CCN(C(=O)c2ccc(NC(=O)Nc3ccc(-c4nc(N5CCOCC5)nc(N5C6COCC5COC6)n4)cc3)cc2)CC1 ; what IC50 value has been reported? 5

Suppose we examine the molecule CCN1CCN(C(=O)c2ccc(NC(=O)Nc3ccc(-c4nc(N5CCCCC5)nc(N5CCOCC5)n4)cc3)cc2)CC1 ; what IC50 value has been reported? 26

----------
- EXPERIMENTAL_TARGET: PI3K-γ (Homo sapiens, UniProt P48736)
- Sequence (P48736 whole entry, species assumed): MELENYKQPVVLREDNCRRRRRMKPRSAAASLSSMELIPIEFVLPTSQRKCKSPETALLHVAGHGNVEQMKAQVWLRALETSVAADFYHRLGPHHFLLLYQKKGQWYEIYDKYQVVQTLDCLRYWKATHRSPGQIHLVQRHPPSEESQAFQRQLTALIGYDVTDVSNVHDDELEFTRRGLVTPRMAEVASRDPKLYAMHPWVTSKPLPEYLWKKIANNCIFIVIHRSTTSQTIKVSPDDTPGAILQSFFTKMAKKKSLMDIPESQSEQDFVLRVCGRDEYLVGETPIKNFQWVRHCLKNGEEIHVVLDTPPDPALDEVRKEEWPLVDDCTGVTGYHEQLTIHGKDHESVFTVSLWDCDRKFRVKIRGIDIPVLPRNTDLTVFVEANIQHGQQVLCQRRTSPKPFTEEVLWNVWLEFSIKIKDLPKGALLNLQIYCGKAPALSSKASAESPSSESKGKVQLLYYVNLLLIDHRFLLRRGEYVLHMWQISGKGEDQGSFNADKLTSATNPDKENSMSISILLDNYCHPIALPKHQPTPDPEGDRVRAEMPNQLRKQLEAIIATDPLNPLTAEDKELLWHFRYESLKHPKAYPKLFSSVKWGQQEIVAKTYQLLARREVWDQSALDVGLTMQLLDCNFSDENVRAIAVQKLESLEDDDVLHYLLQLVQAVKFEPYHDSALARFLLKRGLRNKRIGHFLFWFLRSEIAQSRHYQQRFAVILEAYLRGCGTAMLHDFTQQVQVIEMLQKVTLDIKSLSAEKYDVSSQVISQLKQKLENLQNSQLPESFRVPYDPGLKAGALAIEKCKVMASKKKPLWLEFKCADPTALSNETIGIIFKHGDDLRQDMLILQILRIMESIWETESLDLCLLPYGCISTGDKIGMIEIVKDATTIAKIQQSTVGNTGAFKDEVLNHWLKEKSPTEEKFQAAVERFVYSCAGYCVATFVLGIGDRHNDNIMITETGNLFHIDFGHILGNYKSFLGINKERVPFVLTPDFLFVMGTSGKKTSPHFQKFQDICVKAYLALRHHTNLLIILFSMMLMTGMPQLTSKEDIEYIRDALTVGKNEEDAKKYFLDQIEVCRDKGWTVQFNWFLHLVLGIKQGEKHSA
- PROTOCOL_TEXT: PI3K-gamma fluorescence polarization assay
- MEASUREMENT_PARAMETERS: read-out: IC50 PI3Kγ
REPORTED_ENDPOINT: pIC50
# pIC50 is unitless: minus log10 of the molar concentration; print number only

Examples from the recorded data:
CNCCN(C)C(=O)c1ccc(NC(=O)Nc2ccc(-c3nc(N4CCOCC4)nc(N4C5CCCC4COC5)n3)cc2)cc1 [Example 802]: 7.64
O=C(Nc1ccc(CO)cc1)Nc1ccc(-c2nc(N3CCOCC3)nc(N3C4CCC3COC4)n2)cc1 [Example 38]: 7.04
CN(C)CCNC1CCN(c2nc(-c3ccc(NC(=O)Nc4ccncc4)cc3)nc(N3CC4CCC(C3)O4)n2)CC1 [Example 120]: 5.81

Consider now this further compound.
Suppose we examine the compound O=C(Nc1ccc(C(=O)NCCN2CCCC2)cc1)Nc1ccc(-c2nc(N3CCOCC3)nc(N3C4CCCC3COC4)n2)cc1 [Example 798] ; what pIC50 value has been reported? 7.36

----------
- EXPERIMENTAL_TARGET: PI3K-γ (Homo sapiens, UniProt P48736)
- PROTOCOL_TEXT: PI3K-gamma fluorescence polarization assay
- MEASUREMENT_PARAMETERS: read-out: IC50 PI3Kγ; listed as 727
REPORTED_ENDPOINT: pIC50
# pIC50 is unitless: minus log10 of the molar concentration; print number only

Missing value: pIC50, PI3K-γ (Homo sapiens, UniProt P48736), entry CN1CCN(Cc2ccc(NC(=O)Nc3ccc(-c4nc(N5CCOCC5)nc(N5C6CCC5COC6)n4)cc3)cc2)CC1 . Fill in? 6.72

----------
- EXPERIMENTAL_TARGET: PI3K-α (Homo sapiens)
- PROTOCOL_TEXT: PI3K-alpha fluorescence polarization assay
- MEASUREMENT_PARAMETERS: read-out: IC50 PI3Kα; listed as 486
REPORTED_ENDPOINT: IC50 (nM)
Supply the numeric figure in nM, leaving out any unit text.

Suppose we examine the compound CC(C)c1nc(-c2ccc(NC(=O)Nc3ccc(C(=O)N4CCN(C)CC4)cc3)cc2)nc(N2CCOCC2)n1 [Example 304] ; what IC50 value has been reported? 1.1
